Data credit: patent US20200407452A1

# Test System: native human MET on living cells (human, UniProt P08581 25-1390)
# Sequence (P08581 25-1390): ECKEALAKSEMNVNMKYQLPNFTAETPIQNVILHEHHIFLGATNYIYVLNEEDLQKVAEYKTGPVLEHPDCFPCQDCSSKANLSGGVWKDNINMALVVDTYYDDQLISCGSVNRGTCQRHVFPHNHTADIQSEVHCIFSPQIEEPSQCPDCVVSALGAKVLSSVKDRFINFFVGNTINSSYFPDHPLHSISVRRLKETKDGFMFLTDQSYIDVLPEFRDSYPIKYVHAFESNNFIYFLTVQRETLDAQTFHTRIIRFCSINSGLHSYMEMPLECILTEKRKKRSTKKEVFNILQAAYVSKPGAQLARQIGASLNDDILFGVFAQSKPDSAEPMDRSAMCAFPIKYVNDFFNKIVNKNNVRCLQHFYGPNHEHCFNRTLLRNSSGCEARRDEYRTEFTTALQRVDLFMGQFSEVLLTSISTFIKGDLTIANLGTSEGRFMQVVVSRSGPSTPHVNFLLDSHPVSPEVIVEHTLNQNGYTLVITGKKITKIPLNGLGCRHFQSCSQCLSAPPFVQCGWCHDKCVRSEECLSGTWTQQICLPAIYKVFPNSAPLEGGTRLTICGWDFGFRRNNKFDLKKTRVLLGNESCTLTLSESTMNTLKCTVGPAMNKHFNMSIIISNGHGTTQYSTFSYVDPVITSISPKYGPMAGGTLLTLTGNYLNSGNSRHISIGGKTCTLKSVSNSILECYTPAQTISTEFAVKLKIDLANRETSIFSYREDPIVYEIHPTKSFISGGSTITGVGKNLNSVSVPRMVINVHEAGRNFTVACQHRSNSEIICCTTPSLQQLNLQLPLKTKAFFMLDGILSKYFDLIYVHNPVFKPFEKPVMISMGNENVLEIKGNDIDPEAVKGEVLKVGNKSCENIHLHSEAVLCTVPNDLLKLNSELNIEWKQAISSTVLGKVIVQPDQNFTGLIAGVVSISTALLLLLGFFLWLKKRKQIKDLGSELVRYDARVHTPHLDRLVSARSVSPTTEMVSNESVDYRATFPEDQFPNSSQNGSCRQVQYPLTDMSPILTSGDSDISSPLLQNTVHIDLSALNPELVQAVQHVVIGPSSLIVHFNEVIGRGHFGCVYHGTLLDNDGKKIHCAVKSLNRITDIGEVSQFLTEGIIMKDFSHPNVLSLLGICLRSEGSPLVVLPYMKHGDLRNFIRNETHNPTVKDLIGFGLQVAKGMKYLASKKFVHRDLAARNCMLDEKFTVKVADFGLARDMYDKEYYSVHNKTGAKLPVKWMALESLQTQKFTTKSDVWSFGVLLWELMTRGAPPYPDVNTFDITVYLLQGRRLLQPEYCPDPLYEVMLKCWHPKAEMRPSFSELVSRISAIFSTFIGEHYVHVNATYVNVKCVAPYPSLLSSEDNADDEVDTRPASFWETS
# Procedure Details: cell-based or functional assay
// label = TRUE if phospho-MET ELISA EMAX, A549 cells is not less than 90 % HGF activity, otherwise FALSE

Query string: Quick check, phospho-MET ELISA EMAX, A549 cells >= 90 % HGF activity? 71D6 chimeric llama-human IgG1 mAb (antibody, V domains shown, human IgG1 CH1-CH2-CH3 and human CL lambda; also called 71D6 Human IgG1/lambda) VH: ELQLVESGGGLVQPGGSLRLSCAASGFTFSSYGMSWVRQAPGKGLEWVSAINSYGGSTSYADSVKGRFTISRDNAKNTLYLQMNSLKPEDTAVYYCAKEVRADLSRYNDYESYDYWGQGTQVTVSS VL: QPVLNQPSALSVTLGQTAKITCQGGSLGARYAHWYQQKPGQAPVLVIYDDDSRPSGIPERFSGSSSGGTATLTISGAQAEDEGDYYCQSADSSGSVFGGGTHLTVL
Result string: TRUE

Query string: Now this one: 72F8 chimeric llama-human IgG1 mAb (antibody, V domains shown, human IgG1 CH1-CH2-CH3 and human CL lambda) VH: ELQLVESGGGLVQPGGSLRLSCAASGFTFSNYVMSWVRQAPGKGLEWVSDTNSGGSTSYADSVKGRFTISRDNAKNTLYLQMNSLKPEDTALYYCARSFFYGMNYWGKGTQVTVSS VL: QSALTQPPSLSASPGSSVRLTCTLSSGNNIGSYDISWYQQKAGSPPRYLLNYYTDSRKHQDSGVPSRFSGSKDASANAGLLLISGLQPEDEADYYCSAYKSGSYRWVFGGGTHVTVL
Result string: FALSE

Query string: Then this binder: 71G12 chimeric llama-human IgG1 mAb (antibody, V domains shown, human IgG1 CH1-CH2-CH3 and human CL kappa) VH: QVQLQESGGDLVQPGGSLRVSCVVSGFTFSRYYMSWVRQAPGKGLEWVSSIDSYGYSTYYTDSVKGRFTISRDNAKNTLYLQMNSLKPEDTALYYCARAKTTWSYDYWGQGTQVTVSS VL: EIVLTQSPSSVTASVGGKVTINCKSSQSVFIASNQKTYLNWYQQRPGQSPRLVISYASTRESGIPDRFSGSGSTTDFTLTISSVQPEDAAVYYCQQAYSHPTFGQGTKVELK
Result string: FALSE

Query string: Check 76G7 chimeric llama-human IgG1 mAb (antibody, V domains shown, human IgG1 CH1-CH2-CH3 and human CL lambda) VH: QVQLVESGGNLVQPGGSLRLSCAASGFTFSNYYMSWVRQAPGKGLEWVSDIYSDGSTTWYSDSVKGRFTISRDNAKNTLSLQMNSLKSEDTAVYYCARVKIYPGGYDAWGQGTQVTVSS VL: QAGLTQPPSVSGSPGKTVTISCAGNSSDVGYGNYVSWYQQFPGMAPKLLIYLVNKRASGITDRFSGSKSGNTASLTISGLQSEDEADYYCASYTGSNNIVFGGGTHLTVL too.
Result string: FALSE

Query string: Item: 71D4 chimeric llama-human IgG1 mAb (antibody, V domains shown, human IgG1 CH1-CH2-CH3 and human CL lambda) VH: ELQLVESGGGLVQPGGSLRLSCAASGFTFSGYGMSWVRQAPGKGLEWVSDINSGGGSTSYADSVKGRFTISRDNAKNTLYLQMNSLKPEDTAVYYCAKDMRLYLARYNDYEAWDYWGQGTQVTVSS VL: SSALTQPSALSVTLGQTAKITCQGGSLGSSYAHWYQQKPGQAPVLVIYDDDSRPSGIPERFSGSSSGGTATLTISGAQAEDEGDYYCQSADSSGNAAVFGGGTHLTVL
Result string: FALSE

Query string: Entry to check: 71C3 chimeric llama-human IgG1 mAb (antibody, V domains shown, human IgG1 CH1-CH2-CH3 and human CL lambda) VH: QLQLVESGGGLVQPGGSLRLSCAASGFTFSSHAMSWVRQAPGKGLEWVSAINSGGGSTSYADSVKGRFTISRDNAKNTLYLQMNSLKPEDTAVYYCAKELRFDLARYTDYEAWDYWGQGTQVTVSS VL: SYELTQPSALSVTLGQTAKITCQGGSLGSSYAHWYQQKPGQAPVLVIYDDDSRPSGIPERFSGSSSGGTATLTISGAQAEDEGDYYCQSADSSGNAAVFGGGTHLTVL
Result string: FALSE

Query string: Also need 76H10 chimeric llama-human IgG1 mAb (antibody, V domains shown, human IgG1 CH1-CH2-CH3 and human CL lambda) VH: QLQLVESGGGLVQPGGSLRVSCTASGFTFNTYYMTWVRQAPGKGLEWVSDINSGGGTYYADSVKGRFTISRDNAKNTLYLQMNSLKPEDTALYYCVRVRIWPVGYDYWGQGTQVTVSS VL: QAVVTQEPSLSVSPGGTVTLTCGLSSGSVTTSNYPGWFQQTPGQAPRTLIYNTNNRHSGVPSRFSGSISGNKAALTITGAQPEDEADYYCSLYTGSYTTVFGGGTHLTVL , thanks.
Result string: FALSE

Query string: // same read-out, input: 71G2 chimeric llama-human IgG1 mAb (antibody, V domains shown, human IgG1 CH1-CH2-CH3 and human CL lambda; also called 71G2 Human IgG1/lambda) VH: EVQLQESGGGLVQPGGSLRLSCAASGFTFSIYDMSWVRQAPGKGLEWVSTINSDGSSTSYVDSVKGRFTISRDNAKNTLYLQMNSLKPEDTAVYYCAKVYGSTWDVGPMGYGMDYWGKGTLVTVSS VL: SSALTQPSALSVSLGQTARITCQGGSLGSSYAHWYQQKPGQAPVLVIYGDDSRPSGIPERFSGSSSGGTATLTISGAQAEDEDDYYCQSTDSSGNTVFGGGTRLTVL
Result string: TRUE

Query string: Ok, now 71G3 chimeric llama-human IgG1 mAb (antibody, V domains shown, human IgG1 CH1-CH2-CH3 and human CL lambda; also called 71G3 Human IgG1/lambda) VH: QVQLVESGGGLVQPGGSLRVSCAASGFTFSTYYMSWVRQAPGKGLEWVSDIRTDGGTYYADSVKGRFTMSRDNAKNTLYLQMNSLKPEDTALYYCARTRIFPSGYDYWGQGTQVTVSS VL: QAVVTQEPSLSVSPGGTVTLTCGLSSGSVTTSNYPGWFQQTPGQAPRTLIYNTNSRHSGVPSRFSGSISGNKAALTIMGAQPEDEADYYCSLYPGSTTVFGGGTHLTVL
Result string: TRUE

Query string: Again, but for 71A3 chimeric llama-human IgG1 mAb (antibody, V domains shown, human IgG1 CH1-CH2-CH3 and human CL lambda) VH: EVQLVESGGGLVQPGGSLRLSCAASGFSFKDYDITWVRQAPGKGLEWVSTITSRSGSTSYVDSVKGRFTISGDNAKNTLYLQMNSLKPEDTAVYYCAKVYATTWDVGPLGYGMDYWGKGTLVTVSS VL: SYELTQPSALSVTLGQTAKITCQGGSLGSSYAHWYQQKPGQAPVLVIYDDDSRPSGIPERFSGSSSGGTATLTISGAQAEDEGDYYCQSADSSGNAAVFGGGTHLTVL
Result string: FALSE
